tested-system: Human recombinant neuroligin 4-X linked (NLGN4X) (Homo sapiens, UniProt Q8N0W4)
Sequence (Q8N0W4 42-676 limits assumed): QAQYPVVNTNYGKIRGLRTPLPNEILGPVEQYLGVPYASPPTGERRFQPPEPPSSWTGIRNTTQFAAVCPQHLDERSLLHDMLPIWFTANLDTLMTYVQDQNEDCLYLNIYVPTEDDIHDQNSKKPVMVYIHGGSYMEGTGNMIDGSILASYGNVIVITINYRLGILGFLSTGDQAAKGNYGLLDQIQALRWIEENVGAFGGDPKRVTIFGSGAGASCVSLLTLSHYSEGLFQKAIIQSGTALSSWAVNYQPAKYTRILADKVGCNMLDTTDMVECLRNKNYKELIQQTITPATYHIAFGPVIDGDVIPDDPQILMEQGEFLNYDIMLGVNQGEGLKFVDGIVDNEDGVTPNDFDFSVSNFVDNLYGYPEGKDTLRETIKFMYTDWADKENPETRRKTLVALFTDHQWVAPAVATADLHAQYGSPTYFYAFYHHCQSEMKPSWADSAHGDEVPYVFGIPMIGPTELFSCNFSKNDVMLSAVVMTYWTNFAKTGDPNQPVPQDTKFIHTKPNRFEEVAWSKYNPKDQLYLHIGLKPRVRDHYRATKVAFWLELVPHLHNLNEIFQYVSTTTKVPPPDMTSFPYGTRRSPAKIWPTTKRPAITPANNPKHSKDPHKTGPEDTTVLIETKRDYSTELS
test-details: Microscale thermophoresis (MST) assay
Type: binding
measurement-conditions: pH 7.4; read-out: kD for the binding site at higher affinity
readout-label: Kd (nM)
Write down the numeric answer in nM and omit the unit.

For reference, reported Kd for COc1cc2c(c3oc(=O)c4c(c13)CCC4=O)[C@@H]1CCO[C@@H]1O2 [Aflatoxin B2, aflatoxin B2] stands at 56.6

====

tested-system: Human recombinant neuroligin 4-X linked (NLGN4X) (Homo sapiens)
test-details: biochemical
Format: binding
measurement-conditions: pH 7.4; read-out: dissociation constant (kD)
readout-label: Kd (nM)
Write down the numeric answer in nM and omit the unit.

For reference, reported Kd for COc1cc2c(c3oc(=O)c4c(c13)CCC4=O)[C@@H]1CCO[C@@H]1O2 stands at 10.3
